# PROTOCOL_TEXT: folding stability dG unfold from trypsin proteolysis; higher = more stable
PARAMETER: folding stability dG unfold
Note to self: number, then unit, no commentary.

SMFTLVLPDGSVIPVIKGDSTTTVYDPRTGRTLPIPSSTVEENSIEEIVERILAELEKLGVPAQPVEILESA [r9_1211_JUSTAS] | 1.99 kcal/mol
SAGGEEVKTIKVTLAFYNPETGELVAEVEATATLVDGKLVLTTTVTFRPAPAGEPVTVTVTVVEPEESAGGS [r16_327_TrROS_Hall] | 2.93 kcal/mol
SAGGDPETPTTITAPVDPATGTTTWVVNDGSSTSTIPSSLSLEELKKLGLTKAEPLPDGTLRFTILASAGGS [r8_382_JUSTAS] | 0.289 kcal/mol
SAMELRVESELFPDGRRRLVVLDPGDGAPVVTFIDLEPVDGGYRASITQIGPDPAVAERVARELGIPPESAG [r14_545_TrMRF] | -0.191 kcal/mol
SAGGSALENLEENEYIVKIEIEKKNKKKIEIVIAGKPEKIKEIEKELKKKGFKILKIEPKKVKDVLSAGGSA [r15_640_TrMRF] | 1.45 kcal/mol

Take each entry in turn and give its folding stability dG unfold.
1. SAGGSAKKKKVTITIEVVKNKETGEYLVRIKIKVDGKEYEIVMSEDELKALIDAGVKIEKIEVYPRSAGGSA [r15_783_TrROS_Hall]
2. SAGGSAYGKKKNDPDGNPKYEMEPQPTIEVPVTIPIFDNNNNPLLEIPIPASMPISDINDEIKDLFSAGGSA [r15_309_TrROS]

1.6 kcal/mol
-1.57 kcal/mol

Would you be so kind as to report folding stability dG unfold for each listed record?
1. SGVEYIEIPLEVTLDAPLEKAFEFLEDLAEEFGLGDIEVLEVEVDPETGKVRVKALARIAIAPPPPPSLESA [r9_918_TrMRF]
2. SAMEYTLEFDNLKGLTADEIEKAFRDEGYPDVKINGIRRNPDDWTITVHYGPGMPPNRVQNAIRKAIQESAG [r14_657_TrROS]
3. SAGGSAGGSAGMMKVRIRVDGKEIEIEVPPGMTVDEIAERLKKEFGKDIEIEVEEVKPEPSAGGSAGGSAGG [r11_805_TrROS_Hall]
4. SAGGSAGGSETVVIKIEVSPEELEKLKEALEEAGYEVEIRVERDENGKLTVTVTIRLPPGVKPSAGGSAGGS [r12_653_TrROS_Hall]
5. SAGGSAGGSAGGGSVTIEIEFEAKPGEKFTVTIKGFKKVEITEIYPFDGKVRIKVKVTPESAGGSAGGSAGG [r7_292_TrMRF]
6. SAGGSAGGSADELLDKLLNHKWLRDAMEKAPPGMEEIDIELPDGGKIRIRRTPNGGFRLEPSAGGSAGGSAG [r3_124_TrROS]

1: 2.83 kcal/mol; 2: 1.21 kcal/mol; 3: 3.72 kcal/mol; 4: 3.18 kcal/mol; 5: 3.18 kcal/mol; 6: 1.9 kcal/mol

# get_value(readout='folding stability dG unfold', item= SAGGSAGGSAGKMYRITVTNENGEKLEIEVPEEVKTEEELKEELKKKIPNVVEVKIEEVPSAGGSAGGSAGG [r11_311_TrROS_Hall] ) 0.242 kcal/mol

###

# PROTOCOL_TEXT: folding stability dG unfold from trypsin proteolysis; higher = more stable
Answer each item with its documented folding stability dG unfold.
One number for each entry, in kcal/mol.

Your task in this section: give folding stability dG unfold for each listed record.
1. SAGGMTIITTTFTLKLPSNGKVVTVTKTYNLSPEEGKKEAEKIAKEIAEELKEPTEILEIKITYYPESAGGS [r16_140_JUSTAS]
2. SPVVVTTSPGPDGGARVTIYFPKTGKPIEFDITDPDLVEESTSDPNTRVDIPEEVLRSLAPDLFTGFTTESA [r9_390_TrMRF]
3. SAGGSAGGSAGPRYRLRIELRLERNEDGSLSLSAKIEIERIEPPPPPPRVVLYNGKLYLLSAGGSAGGSAGG [r17_418_TrROS_Hall]
4. SAGGMLVRVTLPSGETVELPVTSLDAAARRLREELGLPAGARLRVEVYDPVTGEVTEYELVIPVPEPVSAGG [r13_145_TrMRF]
5. SAGGSAGGSAGGTAEAVRKLAEEFSQQHGMPIKDVEVQRPPNKWKPVIRYPDNGKWIEISAGGSAGGSAGGS [r10_161_TrROS]
6. SAGGSAGGSAGSSVKTYTGKGKKITITKLDNGTYIVTTPDKTSTYPPSVSEEEVIKKALESAGGSAGGSAGG [r17_272_JUSTAS]
7. SAGGSANWYIKITIEYPNGREWEIPFPFKSVEDVKDQIKNAAREYFPNLPPEDVKIDDIELYPLDDSAGGSA [r15_220_TrROS]
8. SAGGSAGGGMSFTLTSEKKVPGVNVTLTTVTGPGVTITYDPATGKATVEFPDSVTTVPLSSITTSAGGSAGG [r6_512_JUSTAS]

1.26
0.497
3.91
4.92
0.298
0.506
1.3
0.573

Quick request: folding stability dG unfold for each listed item, please.
1. SAGGKKVIITKVETNKNGKKTYTVTLYYKDKKTNEWKKVAEFTFESKEEAENAAKELAKKLNLKIIPSAGGS [r16_512_TrROS_Hall]
2. SAGGARREIVIEIEADTLEEALAAAREALAALEDPEDLTVTIVVRLPPPPPPPRPRRVRLDGEEVELRSAGG [r13_718_TrROS_Hall]
3. SAGGSAIVIPVKSWEEFVEALKNAPASVEIIADLPDGNVIKAKIDPSKGPKIIITEVFPVPPELAGSAGGSA [r15_577_TrMRF]
4. SAGGSAGGSPVPVKVEKKPTKENKELIITYYPDGKVRVTTYTYDENGNKISEKEEIIPKSEVKLSAGGSAGG [r6_579_JUSTAS]

3.08
-0.384
0.515
0.81

Field: folding stability dG unfold. Fill in for each record below.
1. SAGGSAGGSAGAEIKIKKVEKKDSKLKLILPDGRIYEVKKDKKKSNSIKKIKIKKLPPLKSAGGSAGGSAGG [r17_173_JUSTAS]
2. SAGGSAGGMKLLKVVVERKDGSKRELEIPEELLVELGRPPTPEEIAKLLGIKPEDIVRVEIEDVSAGGSAGG [r6_166_TrMRF]

[0.113, 3.65]

###

# PROTOCOL_TEXT: folding stability dG unfold (combined trypsin and chymotrypsin); higher = more stable
Assignment: determine reported folding stability dG unfold for the given sequences.

SAGGSAGGSATLEQIKEAIKDSPPGEPARIPFPNGYTIRIDMRYDKEENKIDDFDIEIEPPNSAGGSAGGSA [r18_202_TrROS] | < -1 kcal/mol

Parameter requested: folding stability dG unfold. Apply to each item below.
1. SAGMMKVKIELTIVVETKEEAEKLAEELKKALEELGIKEVKVTVEYDKETKKVTVTVEIEIELEPELLSAGG [r19_92_TrROS_Hall]
2. SAGGSAGGSMTIPESEFKQMSEEELKKLLLENPEPVTVVTSDPEILERIKKIFEKLGIKITLESAGGSAGGS [r12_97_JUSTAS]
3. SAGMKTVTVKVKISEEEREKLKELGFEIVEEKEDYLVIKVKVPPELSEEELEEAKKEGMTLEEALAKLSAGG [r19_115_TrROS_Hall]
4. SAGGSAGGSAGGMYFIRIKPPNGEELVILIPPGDEIKIKDADGRPWKITDVYPMPPEQFSAGGSAGGSAGGS [r10_422_TrROS]
5. SAGGVWIEITFLMPAEQLLNFIKNLAEEFGYQVNIDVKIQPYPNGPMVTHEIEIKPLPPKVPEEDQESAGGS [r16_262_TrROS]
6. SANWHRFTIEAWVPVRDPNGKPIRPEQVEEQAERIANELWPRGFPIKDVTVEQHPDGWVRITATIEVPDSAG [r14_470_TrROS]

["2.17 kcal/mol", "2.59 kcal/mol", "1.74 kcal/mol", "0.0506 kcal/mol", "3.6 kcal/mol", "2.94 kcal/mol"]

###

Consider the following sequences; for each one, report its folding stability dG unfold.
# PROTOCOL_TEXT: folding stability dG unfold from chymotrypsin proteolysis; higher = more stable
Give bare numbers, in kcal/mol.

Observe how each entry below is paired with its result.
SMVYVPEKNVIIEESEKLFYDPNKPRDLRVKTTPVIEVSPSGEKKTLKTEITFYNPEGNPIFTEESEIEISA [r9_383_JUSTAS] | -0.399
SAGGSAGGSAPWRIRIRDPNGKKVEIPWEEVADKFGIPPEEMTLDDILEAFANNIDRIEIVDSAGGSAGGSA [r18_403_TrROS] | 0.361
SAGGGMKLTITVTNADGSTTTETLTLGDLEKALEFLESDPTASLASIEIKPVPDTSEVEMNVSLTVPASAGG [r13_796_JUSTAS] | 1.55

I need folding stability dG unfold for every entry listed below, if you could help.
1. SAANTEEITITVPLTDPETGEERTVTIPVKYVNTNKPYKTPNGSTKTIPVPKSTVIKEAEEEAKKIFESSSA [r9_698_JUSTAS]
2. SAGGSAGGAELKPVGNDPETGKTAVILLKKPDPTGLVLALEGLSPEELKKLAEIPGYEAVAVLASAGGSAGG [r6_185_TrMRF]
3. SAGGMVFKTKDGYLVRIEVFNKETGEKTEILVPEENIEELLKALESKPGVTEVKVEIYKLKDGKPEKLSAGG [r13_914_TrROS_Hall]
4. SASFRLEFPGVRIEVEVEEVEVFPRPDGRPYRLYRAKIRFLDVPEELQALDFPFSLDDEIEVLFLVSLDSAG [r14_942_TrMRF]
5. SAGGSAGGSAGEEKETLTLVLPLEDMSPEEIAKLLEAAGYKVTVEEKDGLLVVKIERKPPSAGGSAGGSAGG [r11_707_TrROS_Hall]

1. 0.213
2. 0.213
3. 1.38
4. 4.36
5. 2.86

Please report folding stability dG unfold for every entry that follows.
1. SAGGSPVVLTKSPDGLLYVVTLTDPANSLDRVKAKVTAYDPNKPVPLGELTIELDPKTGKAVSALSSAGGSA [r2_324_JUSTAS]
2. SAGGSAGGIWIPADEFKGQPIKVRIKHNGNERPIEEVKIKSHPDGFVFIEFPPELPENMKIEIESAGGSAGG [r6_630_TrROS]

0.488
0.453
